molecular target: human recombinant Monoacylglycerol Lipase (Homo sapiens); assay: MAGL inactivation (kinact/KI from enzyme progress curves, T=0 min protocol); conditions: from plot of Kobs vs. compound concentration, geometric mean of 2-5 determinations (b: ≥6)
Sequence (Q99685 whole entry): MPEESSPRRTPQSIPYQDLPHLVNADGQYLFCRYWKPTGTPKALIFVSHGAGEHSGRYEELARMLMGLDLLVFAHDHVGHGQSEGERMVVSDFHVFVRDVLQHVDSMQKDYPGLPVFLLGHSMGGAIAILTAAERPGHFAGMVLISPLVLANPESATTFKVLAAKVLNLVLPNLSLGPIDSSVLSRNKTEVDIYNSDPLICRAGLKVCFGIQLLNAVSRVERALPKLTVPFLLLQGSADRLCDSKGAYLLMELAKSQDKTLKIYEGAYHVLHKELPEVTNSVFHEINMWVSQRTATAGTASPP
readout.kind: MAGL kinact/KI

The compound identified as N#Cc1cc(C2COC3(CCN(C(=O)O[C@H](CO)C(F)(F)F)CC3)C2)ccc1F (single isomer, unassigned) [Example 28] registered its MAGL kinact/KI at 16900 1/s per M

The compound identified as CN(C(=O)CC1CC1)C1CC2(CCN(C(=O)O[C@H](CO)C(F)(F)F)CC2)C1 [Example 43] registered its MAGL kinact/KI at 18500 1/s per M

The compound identified as N#Cc1cccc(C2CC3(CCN(C(=O)O[C@H](CO)C(F)(F)F)CC3)C2)c1 [Example 46] registered its MAGL kinact/KI at 167000 1/s per M

The compound identified as O=C(O[C@H](CO)C(F)(F)F)N1CCC2(CC1)CC(c1cccc(C(F)(F)F)n1)CO2 (single isomer, unassigned) [Example 15] registered its MAGL kinact/KI at 8230 1/s per M

The compound identified as O=C(O[C@H](CO)C(F)(F)F)N1CCC2(CC1)CC(n1cc(Cl)cn1)CO2 (single isomer, unassigned) [Example 22] registered its MAGL kinact/KI at 9780 1/s per M

The compound identified as O=C(O[C@H](CO)C(F)(F)F)N1CCC2(CC1)CC(Oc1ccccc1)C2 [Example 63] registered its MAGL kinact/KI at 34100 1/s per M

The compound identified as O=C(O[C@H](CO)C(F)(F)F)N1CCC2(CC1)CC(Oc1ccnc(C(F)(F)F)c1)C2 [Example 59] registered its MAGL kinact/KI at 137000 1/s per M

The compound identified as O=C(O[C@H](CO)C(F)(F)F)N1CCC2(CC1)CC(n1cc(C3CC3)cn1)C2 [Example 49] registered its MAGL kinact/KI at 77400 1/s per M

The compound identified as N#Cc1cccc(C2CCOC3(CCN(C(=O)O[C@H](CO)C(F)(F)F)CC3)C2)c1 (single isomer, unassigned) [Example 73] registered its MAGL kinact/KI at 8870 1/s per M

The compound identified as O=C(O[C@H](CO)C(F)(F)F)N1CCC2(CC1)CC(Oc1cccc(C(F)F)c1)C2 [Example 60] registered its MAGL kinact/KI at 267000 1/s per M

The compound identified as CC(C)(C)c1ccn(C2COC3(CCN(C(=O)O[C@H](CO)C(F)(F)F)CC3)C2)n1 (single isomer, unassigned) [Example 52] registered its MAGL kinact/KI at 200000 1/s per M

The compound identified as N#Cc1cccc(OC2CC3(CCN(C(=O)O[C@H](CO)C(F)(F)F)CC3)C2)c1 [Example 86] registered its MAGL kinact/KI at 50100 1/s per M
